Values compiled from the RNAGym collection of RNA variant scans (doi:10.7554/elife.80360).

B1: Hairpin Ribozyme (parent)
chain: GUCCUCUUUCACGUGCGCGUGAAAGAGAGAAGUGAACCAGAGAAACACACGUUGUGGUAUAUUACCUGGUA

# Variants of: B1
# assay_explanation: self-cleavage, relative activity (ratio to wild type); higher = more cleavage; co-transcriptional
experimental_readout: self-cleavage
Please state the value as a number alone, without comment.

As a guide, the following entries are already answered.
variant_spec | self-cleavage
C3A G21A | 0.567
U55C G69A | 0.166
A30U A49C | 0.111
C16A G27C | 0.218
C38G C65G | 0.0624

We next turn to a different variant, shown below.
Task: Would you mind telling me what self-cleavage value was observed for U33A G68C ?
Output: 0.138
